Origin of values: PubChem BioAssay (NCI)

System: OVCAR-5 ovarian
test details: NCI tumour cell line growth inhibition, 48 h
Form field: TGI (one value per entry).
Supply the numeric figure in µM, leaving out any unit text.

- smiles data: "COc1cc(/C=C2\\C[C@H]3[C@@H]4CC=C5C[C@@H](OC(C)=O)CC[C@]5(C)[C@H]4CC[C@]3(C)[C@H]2OC(C)=O)ccc1OCCN1CCCC1"
  readout type: "TGI"
  recorded number: 20.1

input: Check the records and state TGI for `COc1cccc(-c2c(-c3ccccc3)[nH]c(C)c2C(=O)ONC(=O)c2ccccc2)c1`
output: 26.2

input: Check the records and state TGI for `O=c1c(Cl)cc2nc3ccccc3sc-2c1Cl`
output: 78.9

input: Check the records and state TGI for `c1ccc(N/N=C2\NN=C(c3ccccc3)CS2)cc1`
output: 41.8

----------
Tested on: SK-MEL-28 melanoma
test details: NCI tumour cell line growth inhibition, 48 h
Form field: TGI (one value per entry).

# example entries with known answers
- compound: "[O-]c1c2c(nn1-c1ccc(Cl)cc1)c1ccccc1c[n+]2Cc1ccccc1"
  result: "> 100 µM"
- compound: "COCCn1cc(-c2csc(-c3c[nH]c4ccc(Br)cc34)n2)c2cccnc21"
  result: "> 100 µM"
- compound: "O=c1c(Cl)cc2nc3ccccc3sc-2c1Cl"
  result: "35.2 µM"
- compound: "CCCNC(=O)N(C)C(=O)N1N=C(c2ccccc2)C1c1ccccc1 (configuration not stated)"
  result: "> 100 µM"
- compound: "CCCCCC[C@H](C)NC(=O)c1ccc(Nc2nc3ccccc3c3occc23)cc1"
  result: "> 100 µM"

input: Check the records and state TGI for `C#Cc1cccc(NC(=O)c2ccc(NC(=O)CCl)cc2)c1`
output: > 82.5 µM

input: Check the records and state TGI for `COc1ccc(C(=O)/C=C/c2ccc(OCC(=N)N)cc2)cc1`
output: 28.6 µM

input: Check the records and state TGI for `Fc1ccc(Nc2nc3ccccc3c3occc23)cc1`
output: 16.6 µM

input: Check the records and state TGI for `CN(C)c1ccc2nc(CC(O)(C(F)(F)F)C(F)(F)F)ccc2c1`
output: > 10 µM

input: Check the records and state TGI for `O=[N+]([O-])c1cc2c([N+](=O)[O-])cccc2o1`
output: 16.8 µM

input: Check the records and state TGI for `O=c1oc2ccc3ccccc3c2cc1-c1nc2ccc([N+](=O)[O-])cc2o1`
output: > 100 µM

input: Check the records and state TGI for `CCO/C(Cc1ccc(Cl)cc1)=N/NC(N)=S`
output: > 100 µM

----------
System: SNB-75 CNS
test details: NCI tumour cell line growth inhibition, 48 h
Classification field: enter Yes for TGI values not below 20 µM, No for values below it.

- molecule: "Cc1cc(Cl)ccc1NC(=O)C(=O)C(C(=O)c1ccccc1)C1OC(=O)c2ccccc21 (stereo unspecified)"
  label: "Yes"
- molecule: "O=c1cc(-c2ccccc2)[nH]c2cc(Cl)ccc12"
  label: "No"
- molecule: "O=C(C/C=C/c1ccccc1)c1ccccc1"
  label: "Yes"

input: Dear colleague, could you confirm whether `O=c1c2cc(I)ccc2nc(-c2cccs2)n1/N=C/c1ccccc1` has TGI at or above 20 µM?
output: Yes

input: Dear colleague, could you confirm whether `CN(C)CCNC(=O)NC[C@H]1CC[C@@H]2[C@H](O1)c1cc(C(F)(F)F)ccc1N[C@H]2c1ccccc1` has TGI at or above 20 µM?
output: Yes

input: Dear colleague, could you confirm whether CC1=C2C3OC(=O)C(C)C3CCC2(C)C=CC1=Nc1ccccc1 (stereo unspecified) has TGI at or above 20 µM?
output: Yes

input: Dear colleague, could you confirm whether `[O-]c1c2c(nn1-c1ccc(Cl)cc1)c1ccccc1c[n+]2Cc1ccccc1` has TGI at or above 20 µM?
output: Yes

input: Dear colleague, could you confirm whether `O=c1c(Cl)cc2nc3ccccc3sc-2c1Cl` has TGI at or above 20 µM?
output: Yes

input: Dear colleague, could you confirm whether `C=C1Cc2cc(OC)c(OC)c(OC)c2-c2ccc(SC)c(=O)cc21` has TGI at or above 20 µM?
output: No

input: Dear colleague, could you confirm whether `O=C1C=CC2(C=C1)C[C@H](NC(=O)OCc1ccccc1)C(=O)O2` has TGI at or above 20 µM?
output: Yes

----------
Test system: OVCAR-8 ovarian
test details: NCI tumour cell line growth inhibition, 48 h; in the data active means GI50 below about 0.43 µM; inactive means the rest
Outcomes you can answer with include only these: active, inactive

Below are worked cases with known answers.
- compound: "C=CCc1c(O)c(C(=O)/C=C/c2ccccc2)c(OC)c2ccoc12"
  label: "inactive"
- compound: "Fc1ccc(Nc2nc3ccccc3c3occc23)cc1"
  label: "inactive"
- compound: "COC(=O)[C@]12CC[C@@H](C)[C@H](C)[C@@H]1C1=CC[C@@H]3[C@@]4(C)C(C=O)=C[C@@](C)(COC(=O)/C=C/c5ccccc5)[C@@H]4[C@H](O)C[C@@]3(C)[C@]1(C)CC2"
  label: "inactive"
- compound: "Cc1ccc(S(=O)(=O)Nc2ccc(-c3cc(-c4cccc(F)c4)c(C#N)c(N)n3)cc2)cc1"
  label: "inactive"
- compound: "CN(C)CCOC(=O)Nc1nc2ccc(Sc3ccccc3)cc2[nH]1"
  label: "inactive"
- compound: "COC1=CC(=O)c2nc(Cl)ccc2C1=O"
  label: "inactive"
- compound: "Cc1ccc(S(=O)(=O)N2CCc3ccc(O)c4c3C2Cc2ccc3c(c2-4)OCO3)cc1 (centres undefined)"
  label: "inactive"
- compound: "O=[N+]([O-])c1ccc(Sc2ccncn2)c([N+](=O)[O-])c1"
  label: "inactive"
- compound: "O=C(/C=C/OC(=O)c1cccc(Cl)c1)c1ccc(Cl)cc1"
  label: "inactive"
- compound: "COc1ccc(OC)c(/C=C/c2nc(SCc3ccccc3)n(-c3ccc(Cl)cc3)n2)c1"
  label: "inactive"

input: Which outcome was assigned to `COc1cccc(Nc2nccc(-c3cnn4ncccc34)n2)c1` in this test?
output: active

input: Which outcome was assigned to `COc1ccc(N(C)c2nc(Cl)nc3cnn(C)c23)cc1` in this test?
output: active

input: Which outcome was assigned to `Cc1cc(Cl)cc(Cc2cc(Cl)cc(C)c2O)c1O` in this test?
output: inactive

input: Which outcome was assigned to `Cc1nccc2c3ccc(OCc4cn(-c5ccc(Cl)cc5)nn4)cc3n(CC(C)C)c12` in this test?
output: inactive

----------
Form field: TGI (one value per entry).
System: U251 CNS
test details: NCI tumour cell line growth inhibition, 48 h
Supply the numeric figure in µM, leaving out any unit text.

# example entries with known answers
- compound: "O=[N+]([O-])c1ccc(Sc2ccncn2)c([N+](=O)[O-])c1"
  system under test: "U251 CNS"
  TGI [µM]: 17.8
- compound: "CCCCc1c2c(c(C)c3c1C(=O)OC3)Oc1ccccc1O2"
  system under test: "U251 CNS"
  TGI [µM]: 14.9
- compound: "Cc1nccc2c3ccc(OCc4cn(-c5ccc(Cl)cc5)nn4)cc3n(CC(C)C)c12"
  system under test: "U251 CNS"
  TGI [µM]: 13.3

Query compound follows.
input: Check the records and state TGI for Cc1ccc(S(=O)(=O)N2CCc3ccc(O)c4c3C2Cc2ccc3c(c2-4)OCO3)cc1 (stereo not given)
output: 5.92

----------
Tested on: HCC-2998 colon
test details: NCI tumour cell line growth inhibition, 48 h
readout type: TGI

input: Check the records and state TGI for `NC(=O)C(=CNC(=S)Nc1cccc(C(F)(F)F)c1)C(N)=O`
output: > 100 µM

input: Check the records and state TGI for `CCCCCCCCOC(=O)c1cc([N+](=O)[O-])c(Sc2ncnc3nc[nH]c23)c([N+](=O)[O-])c1`
output: 16.2 µM

input: Check the records and state TGI for CC1=C2C3OC(=O)C(C)C3CCC2(C)C=CC1=Nc1ccccc1 (stereo unspecified)
output: > 100 µM

input: Check the records and state TGI for Cc1ccc(-c2cc(-c3ccco3)c(C#N)c(=O)n2C2OC(CO)C(O)C(O)C2O)cc1 (stereo unspecified)
output: > 100 µM

input: Check the records and state TGI for N#CC1C(=O)NC(c2ccccc2[N+](=O)[O-])c2sc3c(F)cccc3c21 (stereo unspecified)
output: 32.7 µM

input: Check the records and state TGI for `[CH3][Sn]([CH3])([CH3])[O][N+](=O)[O-]`
output: > 10 µM

input: Check the records and state TGI for `O=C(O)Cc1cccc2c(=O)c3cccc([N+](=O)[O-])c3oc12`
output: > 100 µM

input: Check the records and state TGI for CSCCC(C(=O)O)N(CC1(O)OCC(O)C(O)C1O)N=O (stereo unspecified)
output: > 100 µM

----------
System: MALME-3M melanoma
test details: NCI tumour cell line growth inhibition, 48 h
readout type: TGI

# example entries with known answers
- compound: "CN(C)c1ccc(N=C2C=CC(=O)c3ccccc32)cc1"
  result: "3.75 µM"
- compound: "Cc1cccc2c1c(=O)c1c(O)cc(O)cc1n2C"
  result: "> 100 µM"
- compound: "C#CC1NC(=O)C1N(CC)CC (stereo unspecified)"
  result: "> 100 µM"
- compound: "CC(=O)/C(C=Nc1c(C)n(C)n(C)c1=O)=C(/O)c1ccccc1"
  result: "> 50 µM"

input: Check the records and state TGI for `CC[C@@]1(CCC(=O)NCCc2c[nH]c3ccccc23)CCC(=O)N2CCc3c([nH]c4ccccc34)[C@H]21`
output: 25.4 µM

input: Check the records and state TGI for COc1cccc(NC(=O)C(=O)C2C=CCS2(=O)=O)c1 (stereo unspecified)
output: > 100 µM

input: Check the records and state TGI for `O=C(NCCCN1CCN(CCCNC(=O)Nc2cccc3ccccc23)CC1)Nc1cccc2ccccc12`
output: 11.8 µM

input: Check the records and state TGI for CC1=C2C3OC(=O)C(C)C3CCC2(C)C=CC1=Nc1ccccc1 (stereo unspecified)
output: > 100 µM

input: Check the records and state TGI for `CCOC(=O)C(=O)Nc1ccccc1C(C)C`
output: > 100 µM

input: Check the records and state TGI for `O=C1O/C(=C\c2ccc(O)cc2)C(c2ccc(O)c(Cl)c2)=C1Cl`
output: 74.5 µM

input: Check the records and state TGI for `C1CN2CCNCCN(CCN1)CC2`
output: > 100 µM
